Provenance of the data: patent US20230303695A1

# study-target: T1, recombinant human IGSF8 extracellular domain tagged by a human Fc region (IGSF8-hFc) (human, UniProt Q969P0 28-579, biotin label in Examples 17, 18 and 28 (site not given))
# T1 construct: also called IGSF8-Fc fusion protein; IGSF8-hFc-biotin; not shown: human Fc region
# T1 sequence: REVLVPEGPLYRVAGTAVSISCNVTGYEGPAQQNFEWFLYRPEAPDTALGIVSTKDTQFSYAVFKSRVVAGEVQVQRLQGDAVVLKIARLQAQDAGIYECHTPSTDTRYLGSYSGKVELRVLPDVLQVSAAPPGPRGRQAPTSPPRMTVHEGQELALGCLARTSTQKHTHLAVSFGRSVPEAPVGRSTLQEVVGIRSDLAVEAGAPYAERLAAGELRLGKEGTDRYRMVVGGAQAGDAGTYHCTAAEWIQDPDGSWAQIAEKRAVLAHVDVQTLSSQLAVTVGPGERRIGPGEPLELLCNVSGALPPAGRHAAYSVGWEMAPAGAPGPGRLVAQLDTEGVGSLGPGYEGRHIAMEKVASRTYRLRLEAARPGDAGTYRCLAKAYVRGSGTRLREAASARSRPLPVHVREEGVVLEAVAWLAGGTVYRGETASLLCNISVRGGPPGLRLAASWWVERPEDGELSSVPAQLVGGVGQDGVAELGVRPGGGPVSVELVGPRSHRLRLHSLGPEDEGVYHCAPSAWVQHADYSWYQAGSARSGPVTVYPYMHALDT
# protocol-notes: SPR, Ab captured
outcome-measure: kon (M⁻¹ s⁻¹)

binder: L2-05 (antibody, V domains shown) VH: EVQLVESGGGLEQPGGSLRLSCAASGFTFRDYAMTWVRQAPGKGLEWVSAISGSGGSTYYADSVKGRFTISRDNSKNTLYLQMNSLRAEDTAIYYCARGEYSSGWPSWFDPWGQGTLVTVSS VL: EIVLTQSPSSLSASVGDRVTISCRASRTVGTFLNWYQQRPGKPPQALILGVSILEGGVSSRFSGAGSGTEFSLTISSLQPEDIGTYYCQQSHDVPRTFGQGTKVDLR
outcome-measure: kon
reported-value: 42700
--
binder: L1-20 (antibody, IgG1, V domains shown, also called L1-20-IgG1) VH: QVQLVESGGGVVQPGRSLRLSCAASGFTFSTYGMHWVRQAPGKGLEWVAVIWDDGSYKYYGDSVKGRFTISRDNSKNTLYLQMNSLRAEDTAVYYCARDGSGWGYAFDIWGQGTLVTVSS VL: DIQLTQSPSSLSASVGDRVTITCQASQDIEWWLNWYQQKPGKAPKLLIYGSPNLETGVPSRFSGSGSGTDFTFTISSLQPEDIATYYCQQYDSFPYTFGQGTKVEIK
outcome-measure: kon
reported-value: 329000
--
binder: L1-27 (antibody, V domains shown) VH: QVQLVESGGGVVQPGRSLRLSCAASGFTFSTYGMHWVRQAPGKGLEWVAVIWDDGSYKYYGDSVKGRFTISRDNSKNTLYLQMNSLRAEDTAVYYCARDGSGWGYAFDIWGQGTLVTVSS VL: DIQLTQSPSSLSASVGDRVTITCQASQDISYNLNWYQHKPGKAPKPLVFGSPNLETGVPSRFSASGSGTDFTLTISSLQPEDFATYYCQQYDSFPYTFGQGTKVEIK
outcome-measure: kon
reported-value: 444000
